These entries and their values trace back to patent US9872883B2.

Assay: Long-term stability of batches having differing chloride contents, % increase in total impurities
Type: physicochemical
Details: 25° C./60% RH, 3 Y
measured-metric: % Increase in Total Impurities From T0 (%)

1 = CN(C)N(C)C(=O)[C@@]1(Cc2ccccc2)CCCN(C(=O)[C@@H](Cc2c[nH]c3ccccc23)NC(=O)C(C)(C)N)C1 [6.2%]
2 = CN(C)N(C)C(=O)[C@@]1(Cc2ccccc2)CCCN(C(=O)[C@@H](Cc2c[nH]c3ccccc23)NC(=O)C(C)(C)N)C1 [5.6%]
3 = CN(C)N(C)C(=O)[C@@]1(Cc2ccccc2)CCCN(C(=O)[C@@H](Cc2c[nH]c3ccccc23)NC(=O)C(C)(C)N)C1 [6.3%]
4 = CN(C)N(C)C(=O)[C@@]1(Cc2ccccc2)CCCN(C(=O)[C@@H](Cc2c[nH]c3ccccc23)NC(=O)C(C)(C)N)C1 [5.9%]
Sort low-to-high on % Increase in Total Impurities From T0, please. Response field: labels, in requested order.
4, 2, 1, 3

* * *

Experiment: Long-term stability of batches having differing chloride contents, % increase in total impurities
Type: physicochemical
Details: 25° C./60% RH, 1 Y
measured-metric: % Increase in Total Impurities From T0 (%)

# count of solved cases: 2
CN(C)N(C)C(=O)[C@@]1(Cc2ccccc2)CCCN(C(=O)[C@@H](Cc2c[nH]c3ccccc23)NC(=O)C(C)(C)N)C1 [6.2%] :: 85
CN(C)N(C)C(=O)[C@@]1(Cc2ccccc2)CCCN(C(=O)[C@@H](Cc2c[nH]c3ccccc23)NC(=O)C(C)(C)N)C1 [6.3%] :: 200

1 = CN(C)N(C)C(=O)[C@@]1(Cc2ccccc2)CCCN(C(=O)[C@@H](Cc2c[nH]c3ccccc23)NC(=O)C(C)(C)N)C1 [5.9%]
2 = CN(C)N(C)C(=O)[C@@]1(Cc2ccccc2)CCCN(C(=O)[C@@H](Cc2c[nH]c3ccccc23)NC(=O)C(C)(C)N)C1 [5.6%]
Given the listed records, identify the one among 1 and 2 with higher % Increase in Total Impurities From T0. To answer, give the label that identifies your chosen option.
2
(2: 10%, 1: 0%)

* * *

Assay: Long-term stability of batches having differing chloride contents, % increase in total impurities
Format: physicochemical
Details: 25° C./60% RH, 2 Y
measured-metric: % Increase in Total Impurities From T0 (%)

P = CN(C)N(C)C(=O)[C@@]1(Cc2ccccc2)CCCN(C(=O)[C@@H](Cc2c[nH]c3ccccc23)NC(=O)C(C)(C)N)C1 [6.2%]
Q = CN(C)N(C)C(=O)[C@@]1(Cc2ccccc2)CCCN(C(=O)[C@@H](Cc2c[nH]c3ccccc23)NC(=O)C(C)(C)N)C1 [5.6%]
R = CN(C)N(C)C(=O)[C@@]1(Cc2ccccc2)CCCN(C(=O)[C@@H](Cc2c[nH]c3ccccc23)NC(=O)C(C)(C)N)C1 [5.9%]
S = CN(C)N(C)C(=O)[C@@]1(Cc2ccccc2)CCCN(C(=O)[C@@H](Cc2c[nH]c3ccccc23)NC(=O)C(C)(C)N)C1 [6.3%]
Sort the 4 compounds by % Increase in Total Impurities From T0; largest first, smallest last. Response field: labels, in requested order.
S, P, Q, R
(S: 340%, P: 114%, Q: 48%, R: 20%)
